The measured values listed here are drawn from ChEMBL document CHEMBL3988442.

ASSAYED_TARGET: AMP-activated protein kinase, AMPK (Homo sapiens) (UniProt P54646+O43741+P54619+Q9UGJ0+Q9Y478+Q13131+Q9UGI9)
RUN_DESCRIPTION: AMP-dependent Kinase enzyme assay. An in vitro enzyme assay that detects ADP turnover that is directly proportional to AMPK activity. This uses naive AMPK that is activated during the assay with MK-8722
Type: functional
Set-up: scale not given: direction of the effect not stated beside the values
SETTINGS: 30 µM
READOUT_LABEL: Percent Effect (%)

                                    compound  reported
 0  CN(C)S(=O)(=O)c1ccc(CN2CCCC2CO)o1 (configuration not stated)     -2.33
 1        CC(=O)N1CCCN(C(=O)NCc2cc[nH]n2)CC1     -10.6
 2  Cc1nn(CCO)c(C)c1CNC1CCc2c(Cl)cccc21 (configuration not stated)     -5.26
 3  Cc1noc(C)c1-c1cncc(C2CCCN2Cc2ccncc2)n1 (configuration not stated)        12
 4  CC1=N[C@@]2(CC[C@@H]3CN(Cc4ccccc4F)C[C@@H]32)C(=O)N1CC1CC1      5.98
 5    CN(C)C(=O)CSc1nnc(CCNC(=O)OC(C)(C)C)o1      6.95
 6  O=c1oc(-c2ccc(F)cc2)nn1CN1CCN(C2CCCC2)CC1      2.12
 7  COCc1nc(C(=O)N2CCCCC2Cn2cc(C)cn2)cs1 (configuration not stated)      6.14
 8  CC1CN=C(N2CCN(C(=O)Nc3nc(-c4ccccc4)ns3)CC2)S1 (configuration not stated)      7.75
 9  CN1Cc2c(C(=O)Nc3cccnc3)ncn2-c2ccccc2S1(=O)=O     -2.46
10  Cc1nc(CN2CCCC(N(C)Cc3cscn3)C2)no1 (configuration not stated)     -1.86
11  COc1ccccc1N1CCC(CNCc2cccc(O)c2)C1 (configuration not stated)      15.1

###

Quick list: Percent Effect per entry.
ASSAYED_TARGET: Sialic acid-binding Ig-like lectin 9 (Homo sapiens)
RUN_DESCRIPTION: Hs-Siglec9 ALPHAscreen SOP 20170721
Design: scale not given: direction of the effect not stated beside the values
SETTINGS: 10 µM
READOUT_LABEL: Percent Effect (%)

                                    compound   readout_label  reported
 0  Cc1cc2c(=O)n3c(nc2s1)CCN(C(=O)c1ccncc1)CC3  Percent Effect      7.55
 1  O=C(Nc1cccnc1)N1CCC(n2ccc(C(F)(F)F)n2)CC1  Percent Effect        13
 2        COc1cc(C)nc(N2CCN(Cc3nccn3C)CC2)n1  Percent Effect     -2.82
 3  O=C(NCC1CCOC1)c1csc(-c2cccc(Cl)c2)n1 (stereo unspecified)  Percent Effect     -3.81
 4  Cc1nc(C2CCCN2CC(=O)N(Cc2ccsc2)C2CC2)no1 (stereo unspecified)  Percent Effect      2.75
 5  O=C(c1ccc(F)cc1)N1CCN2C[C@H](OCc3ccccn3)C[C@H]2C1  Percent Effect     -1.47
 6  Cc1noc(Cl)c1CC(=O)N1CCCC(n2cccn2)C1 (stereo unspecified)  Percent Effect     0.841
 7  Cc1ccc(S(=O)(=O)N2C[C@H]3C[C@H](NC(=O)c4ccn(C)n4)[C@H]3C2)cc1  Percent Effect      4.49
 8      Cc1cc(-c2cnc(NCc3cccnc3)nc2C(C)C)on1  Percent Effect     -1.45
 9        CCc1nc(C(=O)N2CCCC2)nn1-c1ccccc1Cl  Percent Effect      16.4
10     COc1ccc(-c2nccnc2C2CCN(C(C)=O)CC2)cc1  Percent Effect     -7.08
